Tested on: P. falciparum NF54-pfs16-GFP late (IV-V) stage gametocytes
experiment: relative % inhibition of viable gametocyte number; higher = more gametocytocidal
conditionContext: 5 µM; stage: late (IV-V) gametocyte; incubation 72 h

- molecule: "O=C(O)C1Cc2c([nH]c3ccccc23)C(c2ccc(Cl)cc2Cl)N1 (stereo unspecified)"
  relative % inhibition / %: 1.16
- molecule: "CC(C)(C)c1ccc(O)c(CNC2CCCCC2)c1"
  relative % inhibition / %: 81
- molecule: "Cc1[nH]c(-c2ccc(F)cc2)cc1C(=O)NC1CCN(Cc2ccccc2)CC1"
  relative % inhibition / %: 15.4
- molecule: "COc1ccc(Nc2cc(C)nc(NCc3ccccc3)n2)cc1"
  relative % inhibition / %: 36
- molecule: "CCOc1ccc(C=Cc2nc(=O)c3ccccc3o2)cc1"
  relative % inhibition / %: 21.6
- molecule: "COc1ccccc1N=C1C(=O)c2ccccc2C(O)=C1N1CCCCC1"
  relative % inhibition / %: 10.5
- molecule: "CC(=O)NCCc1nc2ccccc2n1Cc1ccc(C(C)C)cc1"
  relative % inhibition / %: 2.88
- molecule: "Cc1c(C)n(CC(O)CNC2CCCCC2C)c2ccccc12 (stereo unspecified)"
  relative % inhibition / %: 54.5
- molecule: "O=C(Nc1ccc(CN2CCOCC2)cc1)c1ccc(-c2cc(Cl)ccc2Cl)o1"
  relative % inhibition / %: 21.4
- molecule: "Cc1ccc(C)c(Cn2c(N3CCC(C(=O)NCc4cccs4)CC3)nc3ccccc32)c1"
  relative % inhibition / %: 31.6
- molecule: "CCN(CC)c1ccc(NC(=O)c2cccs2)cc1"
  relative % inhibition / %: 43.6
- molecule: "CCN(CC)c1cc(C)c2cc(NC(=O)c3cccc(OC)c3)ccc2n1"
  relative % inhibition / %: 86.7
- molecule: "CCOc1cc2c(cc1OCC)C(c1cc(OC)c(O)cc1Cl)NCC2 (stereo unspecified)"
  relative % inhibition / %: 48.3
- molecule: "CCOc1cccc2sc(N(Cc3cccnc3)C(=O)C3CCCCC3)nc12"
  relative % inhibition / %: 11.9
- molecule: "COc1ccc(C)c2sc(N(Cc3cccnc3)C(=O)c3ccc(C#N)cc3)nc12"
  relative % inhibition / %: 7.81
- molecule: "CCOC(=O)C1=CN(C)C=C(C(=O)OCC)C1c1cc(Br)c(OCC)c(OC)c1"
  relative % inhibition / %: 37.9
- molecule: "CCCCNCC(O)(c1ccc(Cl)cc1)c1ccc(Cl)cc1"
  relative % inhibition / %: 44
- molecule: "O=C(NCC1Cc2cccc(-c3ccncc3)c2O1)c1csc2c1CCCC2 (stereo unspecified)"
  relative % inhibition / %: -0.912
- molecule: "CCOC(=O)c1cnc2ccc(CC)cc2c1O"
  relative % inhibition / %: 79.8
- molecule: "CC(C)c1ccc(CNCC(O)c2ccccc2)cc1 (stereo unspecified)"
  relative % inhibition / %: 39.8
- molecule: "Cc1cc(Nc2ccc(Cl)cc2)n2nc(C(F)(F)F)nc2n1"
  relative % inhibition / %: -10.1

====

Items are presented alongside their recorded relative % inhibition.
Test system: P. falciparum NF54-pfs16-GFP late (IV-V) stage gametocytes
experiment: relative % inhibition of viable gametocyte number; higher = more gametocytocidal
conditionContext: 0.5 µM; stage: late (IV-V) gametocyte; incubation 72 h
observationType: relative % inhibition

- chemicalStructure: "CCOc1ccc(CCNC(=O)c2cccs2)cc1OCC"
  assayResult: "-6.65%"
- chemicalStructure: "O=C(Nc1ccc(-c2nc3cc4ccccc4cc3[nH]2)cc1)c1cccc(Br)c1"
  assayResult: "-2.59%"
- chemicalStructure: "c1ccc2cc3c(Nc4ccc(N5CCOCC5)cc4)ccnc3cc2c1"
  assayResult: "9.42%"
- chemicalStructure: "COc1ccc(C=C2SC(Nc3ccccc3)=NC2=O)cc1"
  assayResult: "47.2%"
- chemicalStructure: "O=C(NC1CCN(Cc2ccccc2)CC1)c1cc(C(=O)NC2CCN(Cc3ccccc3)CC2)cc(C(=O)NC2CCN(Cc3ccccc3)CC2)c1"
  assayResult: "0.475%"

====

System: P. falciparum NF54-pfs16-GFP late (IV-V) stage gametocytes
experiment: relative % inhibition of viable gametocyte number; higher = more gametocytocidal
conditionContext: 5 µM; stage: late (IV-V) gametocyte; incubation 72 h
Please mark True if the recorded relative % inhibition is equal to or greater than 50%, and False if it falls below.

- molecule: "Cc1ccc(N2C3c4ccccc4N(S(=O)(=O)c4ccc(C)cc4)C2c2ccccc2N3S(=O)(=O)c2ccc(C)cc2)cc1"
  measurementTarget: "P. falciparum NF54-pfs16-GFP late (IV-V) stage gametocytes"
  className: "True"
- molecule: "COC(=O)c1ccc(C2C3=C(O)CC(c4ccc(F)cc4)CC3=Nc3ccccc3N2C(=O)c2ccccc2)cc1 (centres undefined)"
  measurementTarget: "P. falciparum NF54-pfs16-GFP late (IV-V) stage gametocytes"
  className: "True"
- molecule: "OC(CNCc1ccccc1)Cn1c2ccccc2c2ccccc21 (centres undefined)"
  measurementTarget: "P. falciparum NF54-pfs16-GFP late (IV-V) stage gametocytes"
  className: "True"
- molecule: "CCOC(=O)c1cnc2c(CC)cccc2c1O"
  measurementTarget: "P. falciparum NF54-pfs16-GFP late (IV-V) stage gametocytes"
  className: "False"
- molecule: "OC1=C2C(=Nc3ccccc3SC2c2ccc(Br)cc2)c2ccccc21 (centres undefined)"
  measurementTarget: "P. falciparum NF54-pfs16-GFP late (IV-V) stage gametocytes"
  className: "True"
- molecule: "COc1ccc2nc(C)cc(Nc3cccc(O)c3)c2c1"
  measurementTarget: "P. falciparum NF54-pfs16-GFP late (IV-V) stage gametocytes"
  className: "False"
- molecule: "CCOC(=O)c1cnc2ccc(Cl)cc2c1NCCCN(C)C"
  measurementTarget: "P. falciparum NF54-pfs16-GFP late (IV-V) stage gametocytes"
  className: "False"
- molecule: "CCCCCCc1cc2cc(-c3nc4ccccc4[nH]3)c(=Nc3ccccc3C)oc2cc1O"
  measurementTarget: "P. falciparum NF54-pfs16-GFP late (IV-V) stage gametocytes"
  className: "True"
- molecule: "COc1ccc(-c2cc3c(nn2)-c2ccccc2C3=O)cc1"
  measurementTarget: "P. falciparum NF54-pfs16-GFP late (IV-V) stage gametocytes"
  className: "True"
- molecule: "CSC1=NC(=Nc2c(C)cccc2C)C2(CCC(C(C)(C)C)CC2)N1c1ccc(Cl)cc1 (centres undefined)"
  measurementTarget: "P. falciparum NF54-pfs16-GFP late (IV-V) stage gametocytes"
  className: "True"
- molecule: "CC(Oc1ccc(NC(=O)c2cccs2)cc1)C(=O)c1ccc(Cl)cc1 (centres undefined)"
  measurementTarget: "P. falciparum NF54-pfs16-GFP late (IV-V) stage gametocytes"
  className: "True"
- molecule: "COc1cc(OC)c(N(C)C(=O)c2cc3c(s2)-c2ccccc2S(=O)(=O)C3)cc1Cl"
  measurementTarget: "P. falciparum NF54-pfs16-GFP late (IV-V) stage gametocytes"
  className: "False"
- molecule: "CC(C)(C)c1ccc(C(=O)Nc2c3c(nn2-c2cccc(Cl)c2)CSC3)cc1"
  measurementTarget: "P. falciparum NF54-pfs16-GFP late (IV-V) stage gametocytes"
  className: "False"
- molecule: "O=C(Nc1ccc(N2CCCCC2)c(Cl)c1)c1ccc(Br)o1"
  measurementTarget: "P. falciparum NF54-pfs16-GFP late (IV-V) stage gametocytes"
  className: "False"
- molecule: "CCN1CCN(c2cc(C)c3cc(NC(=O)c4ccc(OC)c(OC)c4)ccc3n2)CC1"
  measurementTarget: "P. falciparum NF54-pfs16-GFP late (IV-V) stage gametocytes"
  className: "False"
- molecule: "CCOc1ccc(CCNC(=O)c2cccs2)cc1OCC"
  measurementTarget: "P. falciparum NF54-pfs16-GFP late (IV-V) stage gametocytes"
  className: "False"
- molecule: "Cc1cc(NCCN2CCCCC2)c2ccc3ccccc3c2n1"
  measurementTarget: "P. falciparum NF54-pfs16-GFP late (IV-V) stage gametocytes"
  className: "False"
- molecule: "CCOC(=O)C1=C(C)N=c2sc(=Cc3ccccc3O)c(=O)n2C1c1ccc(OC)c2ccccc12 (centres undefined)"
  measurementTarget: "P. falciparum NF54-pfs16-GFP late (IV-V) stage gametocytes"
  className: "True"
- molecule: "COc1ccc2nc(N)nc(C)c2c1"
  measurementTarget: "P. falciparum NF54-pfs16-GFP late (IV-V) stage gametocytes"
  className: "False"
- molecule: "CCOc1ccc(-c2nc(NC(=O)c3cccc(S(C)(=O)=O)c3)sc2C)cc1"
  measurementTarget: "P. falciparum NF54-pfs16-GFP late (IV-V) stage gametocytes"
  className: "False"
- molecule: "Cc1sc(NC(=O)c2ccccc2)c(C(c2cccs2)N2CCN(c3ccccc3)CC2)c1C (centres undefined)"
  measurementTarget: "P. falciparum NF54-pfs16-GFP late (IV-V) stage gametocytes"
  className: "True"
- molecule: "CCOC(=O)c1cnc2c(C)cc(C)cc2c1Nc1ccc(OC)c(OC)c1"
  measurementTarget: "P. falciparum NF54-pfs16-GFP late (IV-V) stage gametocytes"
  className: "False"
- molecule: "CCC(c1ccccc1)c1nn2c(-c3cccs3)nnc2s1 (centres undefined)"
  measurementTarget: "P. falciparum NF54-pfs16-GFP late (IV-V) stage gametocytes"
  className: "False"
- molecule: "COc1ccc(CCN2C(=O)c3[nH]nc(-c4cc(Cl)c(C)cc4O)c3C2c2ccccc2F)cc1 (centres undefined)"
  measurementTarget: "P. falciparum NF54-pfs16-GFP late (IV-V) stage gametocytes"
  className: "True"
- molecule: "CN(C)c1ccc(C(O)(c2ccc(N(C)C)cc2)c2ccc(N(C)C)cc2)cc1"
  measurementTarget: "P. falciparum NF54-pfs16-GFP late (IV-V) stage gametocytes"
  className: "True"
- molecule: "Cc1ccc(N2C(=O)C3C(C2=O)C2(c4ccccc4)C(=O)C3(c3ccccc3)C(c3ccccc3)=C2c2ccccc2)cc1 (centres undefined)"
  measurementTarget: "P. falciparum NF54-pfs16-GFP late (IV-V) stage gametocytes"
  className: "True"
- molecule: "Cc1cc(Nc2cccc(F)c2)nc(NCc2ccccc2)n1"
  measurementTarget: "P. falciparum NF54-pfs16-GFP late (IV-V) stage gametocytes"
  className: "False"
- molecule: "Cc1ccc(Cn2c(N3CCC(C(=O)NCc4cccs4)CC3)nc3ccccc32)cc1"
  measurementTarget: "P. falciparum NF54-pfs16-GFP late (IV-V) stage gametocytes"
  className: "False"
- molecule: "CCCCc1ccc(NS(=O)(=O)c2cc3c4c(c2)CCN4C(=O)CC3)cc1"
  measurementTarget: "P. falciparum NF54-pfs16-GFP late (IV-V) stage gametocytes"
  className: "False"
- molecule: "CCOc1ccccc1NC(=O)CN1CCN(C(=O)c2ccco2)CC1"
  measurementTarget: "P. falciparum NF54-pfs16-GFP late (IV-V) stage gametocytes"
  className: "False"
- molecule: "CC1CCN(Cc2ccc(NC(=O)c3cc4ccc5cccnc5c4[nH]3)cc2)CC1"
  measurementTarget: "P. falciparum NF54-pfs16-GFP late (IV-V) stage gametocytes"
  className: "False"
- molecule: "COc1cccc(NC(=O)[C@H](C(C)C)n2c(=O)[nH]c3ccccc3c2=O)c1"
  measurementTarget: "P. falciparum NF54-pfs16-GFP late (IV-V) stage gametocytes"
  className: "True"
- molecule: "CCN1CCN(c2c(C(=O)c3ccccc3)cnc3cc(OC)c(OC)cc23)CC1"
  measurementTarget: "P. falciparum NF54-pfs16-GFP late (IV-V) stage gametocytes"
  className: "False"
- molecule: "Brc1ccc(Nc2nc3ccccc3nc2Nc2ccc(Br)cc2)cc1"
  measurementTarget: "P. falciparum NF54-pfs16-GFP late (IV-V) stage gametocytes"
  className: "True"
- molecule: "CCOc1ccccc1CN1CCc2nc3cc(C(C)(C)C)nn3c(O)c2C1"
  measurementTarget: "P. falciparum NF54-pfs16-GFP late (IV-V) stage gametocytes"
  className: "True"
- molecule: "CN1c2ccccc2N(C)C1c1ccc2c(c1)OCO2"
  measurementTarget: "P. falciparum NF54-pfs16-GFP late (IV-V) stage gametocytes"
  className: "False"
- molecule: "Cc1cccc(Nc2nc(N)c3ccccc3n2)c1"
  measurementTarget: "P. falciparum NF54-pfs16-GFP late (IV-V) stage gametocytes"
  className: "False"
- molecule: "CCCc1c(CC)c(=N)c2ccccc2n1C"
  measurementTarget: "P. falciparum NF54-pfs16-GFP late (IV-V) stage gametocytes"
  className: "False"
- molecule: "CCOc1cc(Br)c(C(C)NC(=O)c2cccc(OC)c2)cc1OCC (centres undefined)"
  measurementTarget: "P. falciparum NF54-pfs16-GFP late (IV-V) stage gametocytes"
  className: "False"
- molecule: "O=c1nc(C=Cc2ccc(Br)cc2)oc2ccccc12"
  measurementTarget: "P. falciparum NF54-pfs16-GFP late (IV-V) stage gametocytes"
  className: "True"
- molecule: "Clc1ccc2c(N3CCCC3)ccnc2c1"
  measurementTarget: "P. falciparum NF54-pfs16-GFP late (IV-V) stage gametocytes"
  className: "False"
